Data origin, for the record: patent EP0646375A1

Assay: in vivo
Conditions: male, Sprague Dawley, rat, iv
Residues, ends and D or L forms follow the SMILES beside them.
MEASURE: clearance (mL/min/kg)
Numeric only. Scale: mL/min/kg

Before answering, review these 5 worked examples.
MOLECULE	clearance, mL/min/kg
NC(=O)CC[C@H](N)C(=O)NCC(=O)O [GLN-GLY] (H-Gln-Gly-OH)	151
C[C@H](N)C(=O)N[C@@H](Cc1ccc(O)cc1)C(=O)O [ALA-TYR] (H-Ala-Tyr-OH)	155
NCC(=O)N[C@@H](Cc1ccc(O)cc1)C(=O)O [GLY-TYR] (H-Gly-Tyr-OH)	101
C[C@H](NC(=O)[C@@H](N)Cc1ccc(O)cc1)C(=O)O [TYR-ALA]	187
C[C@H](N)C(=O)N[C@@H](CCC(N)=O)C(=O)O [ALA-GLN] (H-Ala-Gln-OH)	122

Now take the following molecule into account.
clearance in this record for NCC(=O)N[C@@H](CCC(N)=O)C(=O)O [GLY-GLN] (H-Gly-Gln-OH) : 43
